TGT: human orexin-1 receptor (Homo sapiens)
Sequence (O43613 whole entry): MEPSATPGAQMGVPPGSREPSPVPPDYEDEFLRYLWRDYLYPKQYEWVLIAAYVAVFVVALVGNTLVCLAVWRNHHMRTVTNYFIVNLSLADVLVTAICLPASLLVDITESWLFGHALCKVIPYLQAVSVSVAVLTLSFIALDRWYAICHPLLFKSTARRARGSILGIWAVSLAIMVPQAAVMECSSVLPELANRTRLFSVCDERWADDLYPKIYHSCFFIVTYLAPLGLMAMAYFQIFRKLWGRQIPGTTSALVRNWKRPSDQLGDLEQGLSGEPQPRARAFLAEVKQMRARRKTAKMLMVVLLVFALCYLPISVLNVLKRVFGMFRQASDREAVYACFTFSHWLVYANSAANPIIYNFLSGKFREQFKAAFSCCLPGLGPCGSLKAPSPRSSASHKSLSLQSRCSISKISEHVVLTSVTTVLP
METHOD_DESCRIPTION: Intracellular calcium measurements (FLIPR), antagonism of 10 nM orexin-A in CHO cells expressing the human orexin-1 receptor
TEST_PARAMETERS: CHO cells expressing human orexin-1 receptor, agonist 10 nM orexin-A, read-out: OX1 IC50
Procedure: The orexin receptor antagonistic activity of the compounds of formula (I) is determined in accordance with the following experimental method. • Intracellular Calcium Measurements: […] Within the Fluorescent Imaging Plate Reader (FLIPR, Molecular Devices), antagonists are added to the plate in a volume of 50 μl, incubated for 20 min and finally 100 μl of agonist is added. […]
pIC50: −log10 of the molar value.
Label rule, in plain words: pIC50 of 7 and up is true (1), under 7 is false (0).

Q. Check if pIC50 >= 7 (inclusive). Item: "CCN(CC)C(=O)CN(c1ccc(Cl)cc1C#N)S(=O)(=O)c1ccc(OC)c(OC)c1"
A. false (0)

Q. Check if pIC50 >= 7 (inclusive). Item: "CCN(Cc1cccc(C)n1)C(=O)CN(c1cc2c(C)nsc2cc1Cl)S(=O)(=O)c1ccc(OC)c(OC)c1"
A. true (1)

Q. Check if pIC50 >= 7 (inclusive). Item: "CCN(Cc1cncc(C)n1)C(=S)CN(c1cc(N(C)C)ccc1Cl)S(=O)(=O)c1ccc(OC)c(OC)c1"
A. true (1)

Q. Check if pIC50 >= 7 (inclusive). Item: "CCN(CC)C(=O)CN(c1cc(N(C)C)ccc1C#N)S(=O)(=O)c1ccc(OC)c(OC)c1"
A. false (0)

* * *

Field: pIC50. Provide a value for each of the molecules that follow.
TGT: human orexin-2 receptor (Homo sapiens)
Construct: expressed in transfected cells; host or cells: CHO cells (G418 selection)
Sequence (O43614 whole entry): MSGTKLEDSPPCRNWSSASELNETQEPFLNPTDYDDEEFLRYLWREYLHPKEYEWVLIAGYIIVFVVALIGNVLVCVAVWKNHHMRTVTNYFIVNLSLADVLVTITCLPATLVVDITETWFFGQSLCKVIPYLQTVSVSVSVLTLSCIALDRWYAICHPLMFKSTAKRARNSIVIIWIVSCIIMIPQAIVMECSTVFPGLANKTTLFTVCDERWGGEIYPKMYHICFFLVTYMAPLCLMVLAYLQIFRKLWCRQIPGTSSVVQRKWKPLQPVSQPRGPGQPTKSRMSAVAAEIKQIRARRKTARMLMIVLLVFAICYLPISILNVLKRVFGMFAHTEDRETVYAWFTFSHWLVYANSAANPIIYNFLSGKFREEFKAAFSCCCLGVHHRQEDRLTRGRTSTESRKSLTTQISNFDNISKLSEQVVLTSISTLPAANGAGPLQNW
METHOD_DESCRIPTION: Intracellular calcium measurements (FLIPR), antagonism of 10 nM orexin-A in CHO cells expressing the human orexin-2 receptor
Type: cell-based
TEST_PARAMETERS: CHO cells expressing human orexin-2 receptor, agonist 10 nM orexin-A, read-out: OX2 IC50
Schema: pIC50 number; meaning minus log10 of the concentration expressed in molar units.

// recorded pIC50 for CCN(Cc1cccc(C)n1)C(=O)CN(c1cc2c(C)nsc2cc1Cl)S(=O)(=O)c1ccc(OC)c(OC)c1 [Example 21] : 8.15

// recorded pIC50 for COc1ccc(S(=O)(=O)N(CC(=O)N(CCO)Cc2ccccn2)c2cc(N(C)C)ccc2Cl)cc1OC [Example 55] : 8.15

// recorded pIC50 for CCN(CC)C(=O)CN(c1ccc(Cl)cc1C#N)S(=O)(=O)c1ccc(OC)c(OC)c1 [Example 27] : 8.70

// recorded pIC50 for CCN(Cc1cncc(C)n1)C(=S)CN(c1cc(N(C)C)ccc1Cl)S(=O)(=O)c1ccc(OC)c(OC)c1 [Example 14] : 7.92

// recorded pIC50 for CCN(CC)C(=O)CN(c1cc(N(C)C)ccc1C#N)S(=O)(=O)c1ccc(OC)c(OC)c1 [Example 58] : 8.00

Sourced from patent US8003654B2
